Molecular target: T1, REV-ERBα ligand-binding domain (residues 274–614 with an internal deletion of residues 324–422) (human, UniProt P20393 274-614, internal deletion of residues 324–422)
T1 sequence: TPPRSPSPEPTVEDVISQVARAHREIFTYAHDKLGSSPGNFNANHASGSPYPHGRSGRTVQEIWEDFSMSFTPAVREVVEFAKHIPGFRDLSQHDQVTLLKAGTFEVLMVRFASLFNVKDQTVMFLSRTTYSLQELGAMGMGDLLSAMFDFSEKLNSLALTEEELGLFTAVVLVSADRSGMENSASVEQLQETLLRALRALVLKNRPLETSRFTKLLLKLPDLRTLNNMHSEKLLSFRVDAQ
Experiment: FP; no heme, + SNAP (NO donor)
pKd: −log10 of the molar value. No end group written: not given here.

{"BINDER": "fluorescein-DPASNLGLEDIIRKALMGSF (also called NCOR peptide; Nuclear Receptor Co-repressor peptide) [NCOR interaction domain I (IDI) peptide]", "pKd": 5.43}
